Molecular target: human hNET (Homo sapiens, UniProt P23975)
Sequence (P23975 whole entry): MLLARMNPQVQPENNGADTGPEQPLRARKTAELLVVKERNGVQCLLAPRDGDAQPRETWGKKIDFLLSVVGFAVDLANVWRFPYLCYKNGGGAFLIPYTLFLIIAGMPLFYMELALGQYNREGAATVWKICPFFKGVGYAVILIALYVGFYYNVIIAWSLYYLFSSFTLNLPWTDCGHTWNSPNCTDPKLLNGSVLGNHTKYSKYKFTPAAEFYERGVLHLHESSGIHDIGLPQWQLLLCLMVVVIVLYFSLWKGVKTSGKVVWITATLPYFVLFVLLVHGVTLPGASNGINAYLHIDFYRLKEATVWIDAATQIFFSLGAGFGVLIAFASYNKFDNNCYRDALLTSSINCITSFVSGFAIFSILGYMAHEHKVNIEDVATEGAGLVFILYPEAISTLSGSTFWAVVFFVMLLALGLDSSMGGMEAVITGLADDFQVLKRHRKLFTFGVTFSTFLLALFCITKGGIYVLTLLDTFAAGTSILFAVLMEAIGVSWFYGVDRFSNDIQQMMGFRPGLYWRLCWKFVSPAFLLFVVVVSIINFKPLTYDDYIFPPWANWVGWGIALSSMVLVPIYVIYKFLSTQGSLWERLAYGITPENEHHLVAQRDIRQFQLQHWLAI
Experiment: Norepinephrine (NE) uptake assay in MDCK-Net6 cells
Details: [3H]NE uptake, MDCK-Net6 cells
pEC50: −log10 of the molar value. Where a name gives a salt, the structure may show the parent alone.
Label 1.0 when pEC50 is at or above 7; otherwise label 0.0.

| compound | classification |
| --- | --- |
| OC1(C(CN2CCNCC2)c2cccc(Cl)c2)CCCCC1 (centres unmarked) [Example 1, Dihydrochloride] | 1.0 |
| OC1(C(CN2CCNCC2)c2cc(Cl)sc2Cl)CCCCC1 (centres unmarked) [Example 141, Dihydrochloride] | 0.0 |
| CN1CCN(CC(c2csc(Cl)c2)C2(O)CCCCC2)CC1 (centres unmarked) [Example 159, Dihydrochloride] | 1.0 |
| OC1(C(CN2CCNCC2)c2cccc3ccccc23)CCCCC1 (centres unmarked) [Example 21, Dihydrochloride] | 1.0 |
| OC1(C(CN2CCNCC2)c2ccsc2Cl)CCCCC1 (centres unmarked) [Example 156, Dihydrochloride] | 0.0 |

* * *

# key: entry, value: inhibition at 1 µM
Molecular target: human hNET (Homo sapiens)
Construct: expressed in transfected cells; host or cells: MDCK-Net6 (MDCK cells stably transfected with hNET)
Assay: Norepinephrine (NE) uptake assay in MDCK-Net6 cells
Type: cell-based
Conditions: 1 μM test compound; [3H]NE uptake, MDCK-Net6 cells; read-out: % Inhibition @ 1 μM (hNET)
Where a name gives a salt, the structure may show the parent alone.
metric: inhibition at 1 µM (%)

| compound | reading |
| --- | --- |
| CN1CCC(O)(C(CN2CCNCC2)c2ccc3ccccc3c2)CC1 (centres unmarked) [Example 59, Dihydrochloride] | 33 |
| OC1(C(CN2CCNCC2)c2ccc3ccccc3c2)CCCCC1 (centres unmarked) [Example 63, Dihydrochloride] | 26 |
| COc1ccc2scc(C(CN3CCNCC3)C3(O)CCCCC3)c2c1 (centres unmarked) [Example 279, Dihydrochloride] | 16 |
| OC1(C(CN2CCNCC2)c2cccc3ccccc23)CCCC1 (centres unmarked) [Example 45, Dihydrochloride] | 44 |
| CN1CCN(CC(c2cccc3ccccc23)C2(O)CCC(C(C)(C)C)CC2)CC1 (centres unmarked) [Example 100, Dihydrochloride] | 4 |
| CN1CCN(CC(c2cccc3ccccc23)C2(O)CCCCCCC2)CC1 (centres unmarked) [Example 270, Dihydrochloride] | 13 |
| OC1(C(CN2CCNCC2)c2cnc3ccccc3c2)CCCCC1 (centres unmarked) [Example 262, Dihydrochloride] | 19 |
| CCC1CCC(O)(C(CN2CCNCC2)c2cccc3ccccc23)CC1 (centres unmarked) [Example 91, Dihydrochloride] | 14 |

* * *

Molecular target: human hNET (Homo sapiens, UniProt P23975)
Construct: expressed in transfected cells; host or cells: MDCK-Net6 (MDCK cells stably transfected with hNET)
Assay: Norepinephrine (NE) uptake assay in MDCK-Net6 cells
Type: cell-based
Conditions: 1 μM test compound; [3H]NE uptake, MDCK-Net6 cells; read-out: % Inhibition @ 1 μM (hNET)
Counter-ions that a name gives are not always drawn.
Binning of inhibition at 1 µM into classes: bottom end (below 20%), midrange (20% to below 40%), top end (40% or more)

| molecule | classification |
| --- | --- |
| CC1CCC(O)(C(CN2CCN(C)CC2)c2cccc3ccccc23)CC1 (stereo not drawn) [Example 333, Dihydrochloride] | bottom end |
| OC1(C(CN2CCOCC2)c2ccc3ccccc3c2)CCC1 (stereo not drawn) [Example 109, Hydrochloride] | bottom end |
| OC1(C(CN2CCNCC2)c2c[nH]c3ccccc23)CCCCC1 (stereo not drawn) [Example 155, Dihydrochloride] | midrange |
| CCC(O)(CC)C(CN1CCNCC1)c1cccc2ccccc12 (stereo not drawn) [Example 53, Dihydrochloride] | midrange |
| CC1CCC(O)(C(CN2CCNCC2)c2cccc3ccccc23)CC1 (stereo not drawn) [Example 97, Dihydrochloride] | bottom end |
| CN1CCN(CC(c2cccc3ccccc23)C2(O)CCCC2)CC1 (stereo not drawn) [Example 56, Dihydrochloride] | midrange |
| OC1(C(CN2CCNCC2)c2cccc3ccccc23)CCC1 (stereo not drawn) [Example 68, Dihydrochloride] | midrange |
| CCC(O)(CC)C(CN1CCN(C)CC1)c1cccc2ccccc12 (stereo not drawn) [Example 89, Dihydrochloride] | bottom end |
| OC1(C(CN2CCNCC2)c2cccnc2)CCCCC1 (stereo not drawn) [Example 337, Trihydrochloride] | bottom end |
| OC1(C(CN2CCOCC2)c2ccc3ccccc3c2)CCCCC1 (stereo not drawn) [Example 106, Hydrochloride] | bottom end |
| CN1CCN(CC(c2cccc3ccccc23)C2(O)CCC2)CC1 (stereo not drawn) [Example 69, Dihydrochloride] | midrange |
| OC1(C(CN2CCNCC2)c2csc3ccc(Cl)cc23)CCCCC1 (stereo not drawn) [Example 260, Dihydrochloride] | top end |
| OC1(C(CN2CCNCC2)c2cccc3ccccc23)CCCCC1 (stereo not drawn) [Example 21, Dihydrochloride] | top end |
| CN1CCC(O)(C(CN2CCOCC2)c2ccc3ccccc3c2)CC1 (stereo not drawn) [Example 102, Hydrochloride] | bottom end |
| CC(C)(C)C1CCC(O)(C(CN2CCNCC2)c2cccc3ccccc23)CC1 (stereo not drawn) [Example 76, Dihydrochloride] | midrange |
| OC1(C(CN2CCNCC2)c2ccc(Br)s2)CCCCC1 (stereo not drawn) [Example 143, Dihydrochloride] | top end |
| OC1(C(CN2CCNCC2)c2ccc3ccccc3c2)CCC1 (stereo not drawn) [Example 5, Dihydrochloride] | top end |

* * *

Target: human hNET (Homo sapiens, UniProt P23975)
Construct: expressed in transfected cells; host or cells: MDCK-Net6 (MDCK cells stably transfected with hNET)
Experiment: Norepinephrine (NE) uptake assay in MDCK-Net6 cells
Type: cell-based
Conditions: 1 μM test compound; [3H]NE uptake, MDCK-Net6 cells; read-out: % Inhibition @ 1 μM (hNET)
Structures can show the parent of a compound that is named as a salt.
Label t when inhibition at 1 µM is at or above 50%; otherwise label f.

| molecule | classification |
| --- | --- |
| CN1CCN(CC(c2cccc3ccccc23)C2(O)CCCCCC2)CC1 (centres unmarked) [Example 272, Dihydrochloride] | f |
| OC1(C(CN2CCNCC2)c2cccc3ccccc23)CCCCCC1 (centres unmarked) [Example 271, Dihydrochloride] | f |
| OC1(C(CN2CCNCC2)c2cc3ccccc3s2)CCCCC1 (centres unmarked) | t |
| CN1CCN(CC(c2ccc3ccccc3c2)C2(O)CCCCC2)CC1 (centres unmarked) [Example 64, Dihydrochloride] | f |
| OC1(C(CN2CCNCC2)c2cc(Br)cs2)CCCCC1 (centres unmarked) [Example 281, Dihydrochloride] | t |
| Cn1cc(C(CN2CCNCC2)C2(O)CCCCC2)c2ccccc21 (centres unmarked) [Example 154, Dihydrochloride] | f |
| CCC1CCC(O)(C(CN2CCN(C)CC2)c2cccc3ccccc23)CC1 (centres unmarked) [Example 328, Dihydrochloride] | f |

* * *

Biological target: human hNET (Homo sapiens)
Construct: expressed in transfected cells; host or cells: MDCK-Net6 (MDCK cells stably transfected with hNET)
Test: Norepinephrine (NE) uptake assay in MDCK-Net6 cells
Format: cell-based
Settings: MDCK-Net6, read-out: % Inhibition @ 1 μM (hNET)
Where a name gives a salt, the structure may show the parent alone.

| compound | measured.target | unit.descriptor | inhibition at 1 µM |
| --- | --- | --- | --- |
| OC1(C(CN2CCNCC2)c2cc(Cl)sc2Cl)CCCCC1 (centres unmarked) [Example 141, Dihydrochloride] | human hNET (Homo sapiens) | % | 94 |
| OC1(C(CN2CCNCC2)c2csc(Cl)c2)CCCCC1 (centres unmarked) [Example 144, Dihydrochloride] | human hNET (Homo sapiens) | % | 86 |
| CN1CCN(C[C@H](c2csc(Cl)c2)C2(O)CCCCC2)CC1 [Example 259, Dihydrochloride] | human hNET (Homo sapiens) | % | 20 |
| CN1CCN(C[C@@H](c2csc(Cl)c2)C2(O)CCCCC2)CC1 [Example 258, Dihydrochloride] | human hNET (Homo sapiens) | % | 91 |
| OC1(C(CN2CCNCC2)c2csc3ccccc23)CCCCC1 (centres unmarked) [Example 146, Dihydrochloride] | human hNET (Homo sapiens) | % | 82 |
| CN1CCN(CC(c2csc(Cl)c2)C2(O)CCCCC2)CC1 (centres unmarked) [Example 159, Dihydrochloride] | human hNET (Homo sapiens) | % | 88 |
| OC1(C(CN2CCNCC2)c2ccsc2Cl)CCCCC1 (centres unmarked) [Example 156, Dihydrochloride] | human hNET (Homo sapiens) | % | 55 |
| NC1CCN(CC(c2csc(Cl)c2)C2(O)CCCCC2)CC1 (centres unmarked) [Example 145, Dihydrochloride] | human hNET (Homo sapiens) | % | 38 |

* * *

# key: entry, value: EC50
Target: human hNET (Homo sapiens)
Experiment: Norepinephrine (NE) uptake assay in MDCK-Net6 cells
Details: [3H]NE uptake, MDCK-Net6 cells
Where a name gives a salt, the structure may show the parent alone.

| molecule | measured.target | unit.descriptor | EC50 |
| --- | --- | --- | --- |
| OC1(C(CN2CCNCC2)c2csc3ccccc23)CCCCC1 (stereo not drawn) [Example 146, Dihydrochloride] | human hNET (Homo sapiens) | nM | 120 |
| OC1(C(CN2CCNCC2)c2csc(Cl)c2)CCCCC1 (stereo not drawn) [Example 144, Dihydrochloride] | human hNET (Homo sapiens) | nM | 100 |
| OC1(C(CN2CCNCC2)c2ccc3ccccc3c2)CCC1 (stereo not drawn) [Example 5, Dihydrochloride] | human hNET (Homo sapiens) | nM | 160 |

Every entry's value here was drawn from patent US7419980B2.
